Below are pIC50 values measured for human adenosine A2a receptor (Homo sapiens (Human)).
pIC50: −log10 of the molar value.
experimental.endpoint: pIC50

Answered examples (4):
compound | reading
Nc1nc(N2CC[C@H]2C(=O)N2CCN(c3ccc(F)cc3F)CC2)nc2nc(-c3ccco3)nn12 [Example 112] | 8.05
CC[C@H](Nc1nc(N)n2nc(-c3ccco3)nc2n1)C(=O)N1CCN(c2nccs2)CC1 [Example 248] | 7.89
COc1cccc(C(=O)N2CCN(C(=O)[C@@H]3CCCN3c3nc(N)n4nc(-c5ccco5)nc4n3)CC2)c1 [Example 63] | 9.00
CCCCN1CCN(C(=O)[C@H](Cc2ccccc2)Nc2nc(N)n3nc(-c4ccco4)nc3n2)CC1 [Example 191] | 8.22

[1] C[C@H](Nc1nc(N)n2nc(-c3ccco3)nc2n1)C(=O)N1CCC(C2CCN(CC(C)(C)O)CC2)CC1 [Example 333]
[2] Nc1nc(N[C@H](C(=O)N2CCN(Cc3ccc(F)cc3F)CC2)c2ccccc2)nc2nc(-c3ccco3)nn12 [Example 14]
INPUT: Recorded pIC50 values differ for 1 and 2 ; which one is higher? Return value: the label identifying the chosen record.
OUTPUT: 2
(2: 9.43, 1: 8.05)

---

Biological target: human adenosine A2a receptor (Homo sapiens (Human))
pIC50: −log10 of the molar value.
experimental.endpoint: pIC50

Answered examples (5):
molecule | reading
CC(F)(F)CN1CCN(C(=O)[C@@H]2CCCN2c2cc3nc(-c4ccco4)nn3c(N)n2)CC1 | 8.40
CCC1CCC(N2CCN(C(=O)[C@@H]3CCCN3c3nc(N)n4nc(-c5ccco5)nc4n3)CC2)CC1 (stereo partly drawn) | 7.72
Nc1nc(N2CCC[C@H]2C(=O)N2CCN(CC(F)F)CC2)nc2oc(-c3ccco3)nc12 | 7.41
CC(C)[C@H](Nc1nc(N)n2nc(-c3ccco3)nc2n1)C(=O)N1CCN(CC(C)(C)F)CC1 | 8.15
CCOC[C@H](Nc1nc(N)n2nc(-c3ccco3)nc2n1)C(=O)N1CCN(c2ncccn2)CC1 | 8.15

[a] COCCN1CCC(C2CCN(C(=O)[C@@H]3CCN3c3cc4nc(-c5ccco5)nn4c(N)n3)CC2)CC1
[b] Nc1nc(N2CCC[C@H]2C(=O)N2CCN(C(=O)C3(C(F)(F)F)CC3)CC2)nc2nc(-c3ccco3)nn12
INPUT: Recorded pIC50 values differ for a and b ; which one is higher? Return value: the label identifying the chosen record.
OUTPUT: a
(a: 8.30, b: 7.89)

[1] C[C@@H]1CN(CC(F)F)CCN1C(=O)[C@@H]1CCCN1c1nc(N)n2nc(-c3ccco3)nc2n1
[2] Nc1nc(N[C@H](C(=O)N2CCN(c3ccc(F)cc3F)CC2)C2CCCCC2)nc2nc(-c3ccco3)nn12
INPUT: Recorded pIC50 values differ for 1 and 2 ; which one is higher? Return value: the label identifying the chosen record.
OUTPUT: 2
(2: 10.00, 1: 7.96)

[A] CC(c1ccccc1)N1CCN(C(=O)[C@@H]2CCCN2c2nc(N)n3nc(-c4ccco4)nc3n2)CC1 (stereo partly drawn)
[B] CCCCN1CCC(C2CCN(C(=O)[C@@H]3CCCN3c3nc(N)n4nc(-c5ccco5)nc4n3)CC2)CC1
INPUT: Recorded pIC50 values differ for A and B ; which one is higher? Return value: the label identifying the chosen record.
OUTPUT: A
(A: 8.15, B: 7.36)

---

Biological target: human adenosine A2a receptor (Homo sapiens (Human), UniProt P29274)
Sequence (P29274 whole entry): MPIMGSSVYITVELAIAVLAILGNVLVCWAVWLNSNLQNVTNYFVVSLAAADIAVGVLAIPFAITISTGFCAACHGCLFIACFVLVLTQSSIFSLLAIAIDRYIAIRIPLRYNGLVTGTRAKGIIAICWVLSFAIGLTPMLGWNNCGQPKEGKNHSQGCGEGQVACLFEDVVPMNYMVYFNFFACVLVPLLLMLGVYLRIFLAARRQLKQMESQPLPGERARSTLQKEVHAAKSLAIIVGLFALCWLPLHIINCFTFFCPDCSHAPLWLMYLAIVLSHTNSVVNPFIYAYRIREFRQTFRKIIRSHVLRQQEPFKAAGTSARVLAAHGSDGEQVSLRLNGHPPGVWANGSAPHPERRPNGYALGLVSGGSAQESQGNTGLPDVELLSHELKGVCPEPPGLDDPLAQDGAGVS
pIC50: −log10 of the molar value.
experimental.endpoint: pIC50

smiles.input | experimental.endpoint | reading
Nc1nc(N[C@H](C(=O)N2CCN(c3ncccn3)CC2)C2CCOCC2)nc2nc(-c3ccco3)nn12 | pIC50 | 9.00
CC(F)(F)CN1CCN(C(=O)[C@@H]2CCCN2c2nc(N)n3nc(-c4ccco4)nc3n2)CC1 | pIC50 | 8.22
COC1CCN(C(=O)[C@@H]2CCCN2c2nc(N)n3nc(-c4ccco4)nc3n2)CC1 | pIC50 | 7.74
CC[C@H](Nc1nc(N)n2nc(-c3ccco3)nc2n1)C(=O)N1CCN(c2ncccn2)CC1 | pIC50 | 8.10
CC(F)(F)CN1CC2(CCN(C(=O)[C@@H]3CCCN3c3nc(N)n4nc(-c5ccco5)nc4n3)CC2)C1 | pIC50 | 7.92

[I] CCOC[C@H](Nc1nc(N)n2nc(-c3ccco3)nc2n1)C(=O)N1CCN(CC(F)(F)F)CC1
[II] Nc1nc(N[C@@H](Cc2ccccc2)C(=O)N2CCN(S(=O)(=O)c3ccccc3)CC2)nc2nc(-c3ccco3)nn12
INPUT: Recorded pIC50 values differ for I and II ; which one is higher? Return value: the label identifying the chosen record.
OUTPUT: II
(II: 9.67, I: 7.89)

[P] Nc1nc(N[C@@H](Cc2ccccc2)C(=O)N2CCN(Cc3ccc(F)cc3F)CC2)nc2nc(-c3ccco3)nn12
[Q] Nc1nc(N[C@@H](Cc2ccccc2)C(=O)N2CCN(CC(F)(F)F)CC2)nc2nc(-c3ccco3)nn12
INPUT: Recorded pIC50 values differ for P and Q ; which one is higher? Return value: the label identifying the chosen record.
OUTPUT: P

[I] Nc1nc(N2CCC[C@H]2C(=O)N2CCC(C3CCN(CC(F)F)CC3)CC2)nc2nc(-c3ccco3)nn12
[II] CC(F)(F)CN1CCC2(CC1)CN(C(=O)[C@@H]1CCCN1c1nc(N)n3nc(-c4ccco4)nc3n1)C2
INPUT: Recorded pIC50 values differ for I and II ; which one is higher? Return value: the label identifying the chosen record.
OUTPUT: I

[a] Cc1ccc(-c2nc3nc(N4CCC[C@H]4C(=O)N4CCN(CC(C)(F)F)CC4)nc(N)n3n2)o1
[b] CC(C)[C@H](Nc1nc(N)n2nc(-c3ccco3)nc2n1)C(=O)N1CCN(CC(F)(F)F)CC1
INPUT: Recorded pIC50 values differ for a and b ; which one is higher? Return value: the label identifying the chosen record.
OUTPUT: a

[P] Nc1nc(N2CCC[C@H]2C(=O)N2CCN(c3ccccc3)CC2)nc2nc(-c3ccco3)nn12
[Q] Nc1nc(N2CCC[C@H]2C(=O)N2CCC(C3CCN(CC(F)(F)F)CC3)CC2)nc2nc(-c3ccco3)nn12
INPUT: Identify the item whose pIC50 is the smaller number: P or Q Return value: the label identifying the chosen record.
OUTPUT: P
(P: 7.89, Q: 9.00)

[P] C[C@H](Nc1nc(N)n2nc(-c3ccco3)nc2n1)C(=O)N1CCN(CC(C)(F)F)CC1
[Q] Nc1nc(N2CCC[C@H]2C(=O)N2CCN(C(=O)CO)CC2)nc2nc(-c3ccco3)nn12
[R] CCCCN1CCN(C(=O)[C@@H]2CCCN2c2nc(N)n3nc(-c4ccco4)nc3n2)CC1=O
[S] Nc1nc(N2CCC[C@H]2C(=O)N2CCC(C3CCN(CC(F)(F)F)CC3)CC2)cc2nc(-c3ccco3)nn12
[T] CC(C)(F)CN1CCN(C(=O)[C@@H]2CCCN2c2nc(N)n3nc(-c4ccco4)nc3n2)CC1
INPUT: Ranking field: pIC50; order: falling. Could you list the labels in the order requested?
OUTPUT: S, R, T, Q, P
(S: 9.00, R: 8.70, T: 8.40, Q: 8.10, P: 7.89)

[1] CCC(F)(F)CN1CCN(C(=O)[C@@H]2CCCN2c2nc(N)c3nc(-c4ccco4)oc3n2)CC1
[2] COCCOCCN1CCN(C(=O)[C@@H]2CCCN2c2nc(N)n3nc(-c4ccco4)nc3n2)CC1
INPUT: Recorded pIC50 values differ for 1 and 2 ; which one is higher? Return value: the label identifying the chosen record.
OUTPUT: 1

[P] Cc1ccc(-c2nc3nc(N4CCC[C@H]4C(=O)N4CCN(CC(C)(C)F)CC4)nc(N)n3n2)o1
[Q] Cc1ccc(-c2nc3nc(N4CCC[C@H]4C(=O)N4CCN(c5ccccc5)CC4)nc(N)n3n2)o1
[R] Cc1ccc(-c2nc3nc(N4CCC[C@H]4C(=O)N4CCN(c5ccc(F)cc5F)CC4)nc(N)n3n2)o1
[S] C[C@H](Nc1nc(N)n2nc(-c3ccco3)nc2n1)C(=O)N1CCN(Cc2ccc(F)cc2)CC1
INPUT: Ranking field: pIC50; order: falling. Could you list the labels in the order requested?
OUTPUT: R, Q, P, S
(R: 9.00, Q: 8.70, P: 8.10, S: 7.21)

---

Molecular target: UniProt P29274
experimental.endpoint: IC50 (nM)

[1] CC(F)(F)CN1CCN(C(=O)[C@@H]2CCCN2c2nc(N)n3nc(-c4ccco4)nc3n2)C2(CC2)C1 [Example 343]
[2] Cc1ccc(-c2nc3nc(N4CC[C@H]4C(=O)N4CCN(Cc5ccc(F)cc5F)CC4)nc(N)n3n2)o1 [Example 208]
INPUT: Recorded IC50 values differ for 1 and 2 ; which one is higher? Return value: the label identifying the chosen record.
OUTPUT: 1

[1] Cc1ccc(-c2nc3nc(N4CCC[C@H]4C(=O)N4CCN(CCCC(F)(F)F)CC4)nc(N)n3n2)o1 [Example 300]
[2] C[C@H](Nc1nc(N)n2nc(-c3ccco3)nc2n1)C(=O)N1CCN(c2ncccn2)CC1 [Example 240]
INPUT: Identify the item whose IC50 is the smaller number: 1 or 2 Return value: the label identifying the chosen record.
OUTPUT: 2
